Assignment: determine reported percent of DMSO control GFP for the given compounds.
Experiment: yeast TOR pathway RPL19A-GFP modulators, primary screen, cell-based, S. cerevisiae, multiplex flow cytometry (AID 1862);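 further: lower values mimic rapamycin by blocking the RPL19A rise seen in DMSO cells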
Settings: S. cerevisiae RPL19A-GFP strain, flow cytometry fluorescence, 3 h; at 10 µM; hits give low values
Records with an inconclusive call do not appear.
One number for each entry, in %.

Completed entries (count: 5):
{"columns": ["compound", "measured_quantity", "readout_value"],
 "data": [
  ["CC(C)(C)NCC(O)c1cc(Cl)c(N)c(Cl)c1 (centres undefined)", "percent of DMSO control GFP", 104],
  ["C=C1[C@@H](C)[C@H]2[C@H](Cc3ccccc3)NC(=O)[C@]23OC(=O)/C=C/[C@H](O)CCC[C@@H](C)C/C=C/[C@H]3[C@@H]1O", "percent of DMSO control GFP", 106],
  ["CC(C)C[C@H]1C(=O)N2CCCC2[C@]2(O)O[C@](NC(=O)[C@@H]3C=C4c5cccc6[nH]cc(c56)CC4N(C)C3)(C(C)C)C(=O)N12 (some centres undefined)", "percent of DMSO control GFP", 93.5],
  ["O=C1CN=C(c2ccccc2F)c2cc(Cl)ccc2N1", "percent of DMSO control GFP", 90.9],
  ["CC[C@]12C=CCN3CCC4(c5cc(Br)c(OC)cc5N(C)C4[C@@](O)(C(=O)OC)[C@@H]1OC(C)=O)C32 (some centres undefined)", "percent of DMSO control GFP", 88.9]
]}

Batch request: percent of DMSO control GFP per item, same order as input.
1. COc1ccc(C(=O)N2CCCC2=O)cc1
2. O=c1cccc2n1C[C@H]1C[C@@H]2CN2CCCC[C@@H]12
3. CCNC(=O)[C@H]1O[C@@H](n2cnc3c(N)ncnc32)[C@H](O)[C@@H]1O
4. COc1ccc(OC)c([C@@H](O)[C@H](C)NC(C)(C)C)c1

104
97.6
97
100
